- test.summary: Pharmacokinetics in female BALB/c nude mice bearing A375 xenografts, 1 day dosing (PK and PD study): plasma, tumor and brain concentrations, AUC
- Assay type: in vivo
- measurement.context: mouse, plasma, po, 3 mg/kg, 3 mg/kg p.o. BID × 1 day; post 2nd dose; 48 h; read-out: Mean Concentration in Plasma ± SEM
measurement.name: concentration at 48 h (ng/mL)
Please reply with the bare figure in ng/mL and do not write the unit itself.

Exam item: # get_value(readout='concentration at 48 h', item= CCN(C)S(=O)(=O)Nc1ccc(F)c(Oc2ccc3ncn([C@H]4COC5(CCN(C6CC7(C6)CN(c6cc8c(cc6F)c(N6CCC(=O)NC6=O)nn8C)C7)CC5)C4)c(=O)c3c2)c1C#N [Compound 26] )
Marked response: 0.968

* * *

- test.summary: Example 7 pharmacokinetics assay for efficacy study (plasma, liver)
- Assay type: in vivo, BALB/c nude mice
- measurement.context: mouse, liver, po, 10 mg/kg, p.o., QD × 14 days, read-out: Concentration in Liver (mean ± SEM)
measurement.name: concentration at 6 h (ng/g)
Express it in ng/g; write the number only.

Exam item: Request the reported concentration at 6 h associated with CCN(C)S(=O)(=O)Nc1ccc(F)c(Oc2ccc3ncn(C4CC5(CCN(C6CC7(C6)CN(c6cc8c(cc6F)c(N6CCC(=O)NC6=O)nn8C)C7)CC5)C4)c(=O)c3c2)c1C#N (stereo not shown) [Compound 141]
Marked response: 7500

* * *

- measured.target: BRAF V600E (Homo sapiens, UniProt P15056+Q96SW2, V600E)
- Construct: knock-in of the HiBiT tag to the endogenous BRAF V600E locus; host or cells: A375.10 (A375 clonal line, CRISPR HiBiT knock-in at the endogenous BRAF V600E locus)
- Sequence (P15056 whole entry V600E): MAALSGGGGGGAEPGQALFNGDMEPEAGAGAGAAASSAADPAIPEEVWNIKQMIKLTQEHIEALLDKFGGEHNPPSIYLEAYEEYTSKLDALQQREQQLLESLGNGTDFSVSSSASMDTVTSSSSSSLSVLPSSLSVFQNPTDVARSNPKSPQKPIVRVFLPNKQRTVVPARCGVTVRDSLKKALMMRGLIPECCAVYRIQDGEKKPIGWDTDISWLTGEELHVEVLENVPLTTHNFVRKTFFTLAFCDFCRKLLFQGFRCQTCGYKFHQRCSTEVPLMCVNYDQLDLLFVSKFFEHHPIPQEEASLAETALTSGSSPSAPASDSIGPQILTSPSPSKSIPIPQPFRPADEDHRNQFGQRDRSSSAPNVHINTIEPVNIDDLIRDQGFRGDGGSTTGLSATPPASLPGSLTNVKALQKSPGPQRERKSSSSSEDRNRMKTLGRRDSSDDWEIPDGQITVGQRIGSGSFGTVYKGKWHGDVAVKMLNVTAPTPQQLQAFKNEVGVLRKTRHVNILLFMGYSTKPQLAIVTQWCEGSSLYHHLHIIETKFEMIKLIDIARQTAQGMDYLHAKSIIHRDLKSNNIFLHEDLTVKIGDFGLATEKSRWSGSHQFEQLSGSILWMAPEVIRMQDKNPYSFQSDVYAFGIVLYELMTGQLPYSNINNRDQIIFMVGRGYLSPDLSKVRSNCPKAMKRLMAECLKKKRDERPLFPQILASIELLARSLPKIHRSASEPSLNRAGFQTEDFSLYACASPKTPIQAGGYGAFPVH
- Sequence (Q96SW2 whole entry): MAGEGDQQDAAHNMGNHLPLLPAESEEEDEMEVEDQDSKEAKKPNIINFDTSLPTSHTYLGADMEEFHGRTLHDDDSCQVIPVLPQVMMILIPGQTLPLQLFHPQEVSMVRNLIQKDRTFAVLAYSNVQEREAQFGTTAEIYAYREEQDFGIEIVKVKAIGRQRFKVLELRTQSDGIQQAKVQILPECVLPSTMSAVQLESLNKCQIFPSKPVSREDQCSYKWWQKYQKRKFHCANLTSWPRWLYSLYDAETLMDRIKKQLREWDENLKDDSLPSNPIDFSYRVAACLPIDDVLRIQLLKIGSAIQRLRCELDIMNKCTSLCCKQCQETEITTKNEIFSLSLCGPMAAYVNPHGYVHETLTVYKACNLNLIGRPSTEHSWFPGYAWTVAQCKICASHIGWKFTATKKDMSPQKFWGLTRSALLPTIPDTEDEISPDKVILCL
- Sequence (Q16531 whole entry partner): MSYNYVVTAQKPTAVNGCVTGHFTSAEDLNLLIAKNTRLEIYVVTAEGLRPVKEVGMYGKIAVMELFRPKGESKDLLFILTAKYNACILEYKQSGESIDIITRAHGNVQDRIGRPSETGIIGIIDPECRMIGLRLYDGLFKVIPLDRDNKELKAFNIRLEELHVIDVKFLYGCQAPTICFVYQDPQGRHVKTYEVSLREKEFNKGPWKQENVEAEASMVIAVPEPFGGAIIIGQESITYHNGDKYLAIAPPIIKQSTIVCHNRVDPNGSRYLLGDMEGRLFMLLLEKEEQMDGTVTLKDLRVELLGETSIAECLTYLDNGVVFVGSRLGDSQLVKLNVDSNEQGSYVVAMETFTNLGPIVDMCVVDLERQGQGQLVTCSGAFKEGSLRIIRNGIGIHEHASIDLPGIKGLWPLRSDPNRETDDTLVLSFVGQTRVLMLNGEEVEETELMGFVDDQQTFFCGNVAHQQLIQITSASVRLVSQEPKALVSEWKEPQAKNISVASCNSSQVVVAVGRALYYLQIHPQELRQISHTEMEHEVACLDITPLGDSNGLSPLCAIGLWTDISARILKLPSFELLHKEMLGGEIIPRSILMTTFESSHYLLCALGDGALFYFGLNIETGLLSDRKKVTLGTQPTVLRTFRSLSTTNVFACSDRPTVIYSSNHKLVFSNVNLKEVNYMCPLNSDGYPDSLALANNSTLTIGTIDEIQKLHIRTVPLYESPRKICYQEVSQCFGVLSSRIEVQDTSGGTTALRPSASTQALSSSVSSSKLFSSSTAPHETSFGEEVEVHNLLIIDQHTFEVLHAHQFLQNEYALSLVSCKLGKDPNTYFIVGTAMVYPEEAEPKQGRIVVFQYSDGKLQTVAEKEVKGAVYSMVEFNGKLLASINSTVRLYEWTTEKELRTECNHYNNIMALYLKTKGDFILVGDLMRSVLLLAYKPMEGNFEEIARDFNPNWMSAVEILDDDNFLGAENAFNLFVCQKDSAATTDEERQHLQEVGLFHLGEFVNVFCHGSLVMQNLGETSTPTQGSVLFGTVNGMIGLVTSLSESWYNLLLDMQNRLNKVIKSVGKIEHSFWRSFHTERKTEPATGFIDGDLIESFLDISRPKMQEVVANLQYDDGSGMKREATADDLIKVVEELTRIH
- test.summary: BRAF V600E HiBiT Degradation Assay
- Type: cell-based
- measurement.context: A375.10 cells, HiBiT, BRAF V600E, 24 hours; read-out: HiBiT-Degradation A375.10 BRAF 24 hours IP
measurement.name: DC50

compound	measurement.name	test.result
CN(CCO)S(=O)(=O)Nc1ccc(F)c(Oc2ccc3ncn(C4CC5(CCN(C6CCC(c7cc8c(cc7F)c(N7CCC(=O)NC7=O)nn8C)CC6)CC5)C4)c(=O)c3c2)c1C#N (single isomer, unassigned) [Compound 82]	DC50	< 1 µM

Now for a further compound.
Exam item: DC50 for CCN(C)S(=O)(=O)Nc1ccc(F)c(Oc2ccc3ncn([C@H]4COC5(CCC(N6CCC(c7cc8c(cc7F)c(N7CCC(=O)NC7=O)nn8C)C(F)(F)C6)CC5)C4)c(=O)c3c2)c1C#N (single isomer, unassigned) [Compound 38] ?
Marked response: < 1 µM

* * *

- test.summary: Pharmacokinetics in female BALB/c nude mice bearing A375 xenografts, 1 day dosing (PK and PD study): plasma, tumor and brain concentrations, AUC
- Type: in vivo
- measurement.context: mouse, plasma, po, 1.5 mg/kg, 1.5 mg/kg p.o. BID × 1 day; post 1st dose; 12 h; read-out: Mean Concentration in Plasma ± SEM
measurement.name: concentration at 12 h
Kindly report the value followed by its unit.

Exam item: Which measured concentration at 12 h value corresponds to CCN(C)S(=O)(=O)Nc1ccc(F)c(Oc2ccc3ncn([C@H]4COC5(CCN(C6CC7(C6)CN(c6cc8c(cc6F)c(N6CCC(=O)NC6=O)nn8C)C7)CC5)C4)c(=O)c3c2)c1C#N [Compound 26] ?
Marked response: 121 ng/mL
